These data points were gathered from the RepoRT retention time repository (doi:10.1021/acs.analchem.1c00972).

Assay info: RP, Waters ACQUITY UPLC BEH C18, 100 × 1 mm, 1.7 µm, 50 °C, 0.3 mL/min, estimated dead time 0.17 min; A: water + 10 mM ammonium bicarbonate; B: 10% water + 90% methanol + 10 mM ammonium bicarbonate; gradient (min/%B) 0/0 15/100 21/100 22/0 30/0
Stated conditions: stereoisomer not certain
Assay readout: LC retention time (min)
Please give a number only; it is taken to be in min.

Prompt: Name the recorded LC retention time for COC(=O)C(c1ccccc1Cl)N1CCc2sccc2C1 (centres undefined) .
Response: 16.5

Prompt: Name the recorded LC retention time for CC=C1CC2(CO)OC2(C)C(=O)OCC2=CC[N+]3([O-])CCC(OC1=O)C23 (centres undefined) [Erucifoline N-oxide] .
Response: 6.82

Prompt: Name the recorded LC retention time for N#Cc1nn(-c2c(Cl)cc(C(F)(F)F)cc2Cl)c(N)c1SC(F)(F)F [Fipronil sulfide] .
Response: 15.8

Prompt: Name the recorded LC retention time for O=c1ccc2ccc(O)cc2o1 .
Response: 6.78

Prompt: Name the recorded LC retention time for O=C1Nc2ccc(Cl)cc2C(C#CC2CC2)(C(F)(F)F)O1 (centres undefined) .
Response: 15.8

Prompt: Name the recorded LC retention time for N#CC(CCc1ccc(Cl)cc1)(Cn1cncn1)c1ccccc1 (centres undefined) .
Response: 15.5

Prompt: Name the recorded LC retention time for CCCCOCCOCCO .
Response: 10.9

Prompt: Name the recorded LC retention time for CCN(CC)C(=O)SCc1ccccc1Cl .
Response: 16.3

Prompt: Name the recorded LC retention time for Nc1[nH]c(=O)ncc1F .
Response: 5.99

====

Assay info: RP, Waters ACQUITY UPLC BEH C18, 100 × 1 mm, 1.7 µm, 50 °C, 0.3 mL/min, estimated dead time 0.17 min; A: water + 10 mM ammonium bicarbonate; B: 10% water + 90% methanol + 10 mM ammonium bicarbonate; gradient (min/%B) 0/0 15/100 21/100 22/0 30/0
Stated conditions: stereoisomer not certain
Please respond with reported LC retention time for every item in the list.
Please give a number only; it is taken to be in min.

Prompt: Name the recorded LC retention time for O=C(OC1CCCCC1)c1ccccc1C(=O)OC1CCCCC1 .
Response: 12.5

Prompt: Name the recorded LC retention time for CCCCOC(=O)CCCCCCCCC(=O)OCCCC [Dibutyl sebacate] .
Response: 18.5

Prompt: Name the recorded LC retention time for COc1ccc2c3c1OC1C(=O)CCC4C(C2)N(C)CCC314 (stereo not drawn) [Hydrocodone] .
Response: 12.1

Prompt: Name the recorded LC retention time for Clc1cccc(Cl)c1NC1=NCCN1 .
Response: 10.2

Prompt: Name the recorded LC retention time for c1ccc2sc(SN3CCOCC3)nc2c1 .
Response: 10

Prompt: Name the recorded LC retention time for COc1c(C(C)(C)C)cc([N+](=O)[O-])c(C)c1[N+](=O)[O-] .
Response: 6.58

Prompt: Name the recorded LC retention time for CC1(c2ccc(Oc3ccccc3)cc2)OC(=O)N(Nc2ccccc2)C1=O (stereo not drawn) .
Response: 16.1

Prompt: Name the recorded LC retention time for CC=C1CC(C)C(C)(O)C(=O)OCC2=CCN3CCC(OC1=O)C23 (stereo not drawn) .
Response: 12.5

Prompt: Name the recorded LC retention time for CN=CNc1ccc(C)cc1C .
Response: 12.1

Prompt: Name the recorded LC retention time for CCNc1ccc2c(C)cc(=O)oc2c1 [7-(Ethylamino)-4-methylcoumarin] .
Response: 12.5

Prompt: Name the recorded LC retention time for CC=C1CC(C)C(C)(O)C(=O)OCC2=CC[N+]3([O-])CCC(OC1=O)C23 (stereo not drawn) [Senecionine N-oxide] .
Response: 9.78

Prompt: Name the recorded LC retention time for CCOCN(C(=O)CCl)c1c(C)cccc1CC .
Response: 15.3

Prompt: Name the recorded LC retention time for O=C1NCCN1Cc1ccc(Cl)nc1 .
Response: 8.68

Prompt: Name the recorded LC retention time for CCC(=O)OC1(C(=O)SCF)C(C)CC2C3CC(F)C4=CC(=O)C=CC4(C)C3(F)C(O)CC21C (stereo not drawn) [Fluticasone propionate] .
Response: 15.6

Prompt: Name the recorded LC retention time for CCN(CC)C(=O)SCc1ccc(Cl)cc1 .
Response: 16.4

Prompt: Name the recorded LC retention time for CNC(=O)Oc1cc(C)c(SC)c(C)c1 .
Response: 14.3

Prompt: Name the recorded LC retention time for CCOC(=O)CCN(SN(C)C(=O)Oc1cccc2c1OC(C)(C)C2)C(C)C .
Response: 17

Prompt: Name the recorded LC retention time for CNC(CC(C)C)C(=O)NC1C(=O)NC(CC(N)=O)C(=O)NC2C(=O)NC3C(=O)NC(C(=O)NC(C(=O)O)c4cc(O)cc(O)c4-c4cc3ccc4O)C(O)c3ccc(c(Cl)c3)Oc3cc2cc(c3OC2OC(CO)C(O)C(O)C2OC2CC(C)(N)C(O)C(C)O2)Oc2ccc(cc2Cl)C1O (stereo not drawn) .
Response: 8.6

====

Assay info: RP, Phenomenex Synergi Polar-RP, 100 × 3 mm, 2.5 µm, 40 °C, 0.4 mL/min, estimated dead time 1.1 min; A: water + 1 mM ammonium fluoride; B: methanol + 1 mM ammonium fluoride; C: acetonitrile; D: 50% isopropanol + 50% acetone; gradient (min/%B/%C/%D) 0/5/0/0 2/5/0/0 8/95/0/0 12/80/15/0 19/25/70/0 19.5/0/25/70 21.5/0/25/70 22.5/0/25/0 23/5/0/0
Stated conditions: stereoisomer not certain
Assay readout: LC retention time (min)
Please give a number only; it is taken to be in min.

Prompt: Name the recorded LC retention time for Cc1cccc(C)c1N(Cn1cccn1)C(=O)CS(=O)(=O)O .
Response: 7.83

Prompt: Name the recorded LC retention time for CCCCCCCCCCCCc1ccccc1S(=O)(=O)O .
Response: 10.1

Prompt: Name the recorded LC retention time for O=S(=O)(O)c1nc2ccccc2s1 .
Response: 6.31

Prompt: Name the recorded LC retention time for O=C(O)C(F)(F)C(F)(F)C(F)(F)C(F)(F)C(F)(F)C(F)(F)C(F)(F)F .
Response: 8.97

Prompt: Name the recorded LC retention time for Cc1cc(O)ccc1Cl .
Response: 8.57

Prompt: Name the recorded LC retention time for COC(=O)c1ccc(O)cc1 .
Response: 9.32

Prompt: Name the recorded LC retention time for O=C(O)C(F)(F)C(F)(F)C(F)(F)F .
Response: 2.91

Prompt: Name the recorded LC retention time for O=S(=O)(O)c1ccc2ccc(S(=O)(=O)O)cc2c1 .
Response: 1.65

Prompt: Name the recorded LC retention time for Cc1ccc(-c2cc(C(F)(F)F)nn2-c2ccc(S(N)(=O)=O)cc2)cc1 .
Response: 11.1

Prompt: Name the recorded LC retention time for CCC(C)c1cc([N+](=O)[O-])cc([N+](=O)[O-])c1O (configuration not stated) .
Response: 10

Prompt: Name the recorded LC retention time for CCCCCCCCCc1ccc(O)cc1 .
Response: 11.6

Prompt: Name the recorded LC retention time for O=c1[nH]c2ccccc2s1 [2-hydroxybenzothiazole] .
Response: 9.61

Prompt: Name the recorded LC retention time for CC(C)(Oc1ccc(CCNC(=O)c2ccc(Cl)cc2)cc1)C(=O)O [Bezafibrate] .
Response: 9.33

Prompt: Name the recorded LC retention time for CC1=CC(=O)NS(=O)(=O)O1 .
Response: 2.11

Prompt: Name the recorded LC retention time for Cc1cccc(Nc2ccccc2C(=O)O)c1C .
Response: 10.6

Prompt: Name the recorded LC retention time for Nc1ccc(S(=O)(=O)O)c(N)c1 .
Response: 1.48

Prompt: Name the recorded LC retention time for O=S(=O)(c1ccc(O)cc1)c1ccc(O)cc1 .
Response: 9.36

====

Assay info: RP, Waters ACQUITY UPLC BEH C18, 100 × 1 mm, 1.7 µm, 50 °C, 0.3 mL/min, estimated dead time 0.17 min; A: water + 0.1% formic acid + 20 mM ammonium formate; B: methanol + 0.1% formic acid + 20 mM ammonium formate; gradient (min/%B) 0/0 15/100 21/100 22/0 30/0
Stated conditions: stereoisomer not certain
Assay readout: LC retention time (min)
Please give a number only; it is taken to be in min.

Prompt: Name the recorded LC retention time for CCOC1C(OC)C(C)OC(OC2CC3CCC4C5CC(=O)OC(CC)CCCC(OC6CCC(N(C)C)C(C)O6)C(C)C(=O)C5=CC4C3C2)C1OC (stereo not drawn) [Spinetoram] .
Response: 16.2

Prompt: Name the recorded LC retention time for O=C1NC(=O)c2ccccc21 [phthalimide] .
Response: 7.8

Prompt: Name the recorded LC retention time for CC(C)(C)c1ccc(CCOc2ncnc3ccccc23)cc1 [Fenazaquin] .
Response: 17.8

====

Assay info: RP, Waters ACQUITY UPLC BEH C18, 100 × 1 mm, 1.7 µm, 50 °C, 0.3 mL/min, estimated dead time 0.17 min; A: water + 10 mM ammonium bicarbonate; B: 10% water + 90% methanol + 10 mM ammonium bicarbonate; gradient (min/%B) 0/0 15/100 21/100 22/0 30/0
Stated conditions: stereoisomer not certain
Please respond with reported LC retention time for every item in the list.
Please give a number only; it is taken to be in min.

Prompt: Name the recorded LC retention time for CNC(=O)Oc1cc(C)c(S(C)(=O)=O)c(C)c1 [Methiocarb sulfone] .
Response: 9.75

Prompt: Name the recorded LC retention time for CCC1OC(=O)C(C)C(OC2CC(C)(OC)C(O)C(C)O2)C(C)C(OC2OC(C)CC(N(C)C)C2O)C(C)(O)CC(C)C(=NOCOCCOC)C(C)C(O)C1(C)O (stereo not given) [Roxithromycin] .
Response: 16.9

Prompt: Name the recorded LC retention time for CNC(=O)ON=CC(C)(C)S(C)=O (stereo not given) [Aldicarb Sulfoxide] .
Response: 6.62

Prompt: Name the recorded LC retention time for CC(=O)N1CCN(c2ccc(OCC3COC(Cn4ccnc4)(c4ccc(Cl)cc4Cl)O3)cc2)CC1 (stereo not given) [Ketoconazole] .
Response: 16.1

Prompt: Name the recorded LC retention time for CCCN(CCC)CCC [Tripropylamine] .
Response: 12.5

Prompt: Name the recorded LC retention time for O=C(OCc1ccccc1)c1ccccc1C(=O)OCc1ccccc1 [Dibenzylphthalate] .
Response: 16.7

Prompt: Name the recorded LC retention time for CCCCOC(=O)COC(=O)c1ccccc1C(=O)OCCCC [2-Butoxy-oxoethylbutylphthalate] .
Response: 16.6

Prompt: Name the recorded LC retention time for CC(=O)N(C)c1ccc(N)cc1 [N-(4-Aminophenyl)-N-methyl-acetamid] .
Response: 7.24

Prompt: Name the recorded LC retention time for CCC(=O)OC(Cc1ccccc1)(c1ccccc1)C(C)CN(C)C (stereo not given) [Propoxyphene] .
Response: 16.8

Prompt: Name the recorded LC retention time for O=C(O)C(F)(F)C(F)(F)C(F)(F)C(F)(F)C(F)(F)C(F)(F)F [Perfluoroheptanoic acid] .
Response: 13.9

Prompt: Name the recorded LC retention time for C#CC1(O)C=CC2C3CCC4=CC(=O)CCC4C3CCC21CC (stereo not given) [Gestoden] .
Response: 14.3

Prompt: Name the recorded LC retention time for O=C(O)CC[C@@H](C(=O)O)N(CC(=O)O)CC(=O)O [N,N-Bis(carboxymethyl)-L-glutamic acid] .
Response: 13

Prompt: Name the recorded LC retention time for CCCOC(=O)c1ccc(O)cc1 [Propylparaben] .
Response: 12.7

Prompt: Name the recorded LC retention time for O=c1[nH]c2ccccc2n1CCCN1CCC(n2c(=O)[nH]c3cc(Cl)ccc32)CC1 [Domperidone] .
Response: 14.8

Prompt: Name the recorded LC retention time for COC1CC(OC2CCC3(C)C(CCC4C3CCC3(C)C(C5=CC(=O)OC5)C(OC(C)=O)CC43O)C2)OC(C)C1O (stereo not given) [Oleandrin] .
Response: 14.7
